# System: OVCAR-4 ovarian
# method: NCI-60 one-dose screen, 48 h (100 = growth as untreated, 0 = no growth, -100 = all killed)
# study conditions: 10 µM unless noted
This is part of a sample that, as a whole, favours compounds with a hit. Of some 83,000 tested, about 20% had one in any assay.
metric: growth (%)
Your answer should be a plain number; it is taken to be in %.

O=C1C(Cl)=C(NCCCN(CCCNC2=C(Cl)C(=O)c3ccccc3C2=O)C2=C(Cl)C(=O)c3ccccc3C2=O)C(=O)c2ccccc21 | 33.9
O=C1C(Cl)=C(Nc2ccc3c(c2NC2=C(Cl)C(=O)c4ccccc4C2=O)C(=O)c2ccccc2C3=O)C(=O)c2ccccc21 | -12
CC(C)(C)c1ccc2oc(=O)n(SC(Cl)(Cl)Cl)c2c1 | 106

Fill in growth for record COc1ccc2[nH]c(-c3ccccc3)c(C=C(C#N)C#N)c2c1
35

Fill in growth for record CS(=O)(=O)O[C@@H]1C(=O)N(c2cc3c4ccccc4ccc3c3ccccc23)[C@H]1c1ccc(F)cn1
66.5

Fill in growth for record CO[C@@]12C=C[C@@]34CCC(=O)N3c3ccccc3[C@@H](O1)C4C2
109

Fill in growth for record Nc1c(C(=O)Nc2cccc3ccccc23)sc2nc3c(cc12)CCCCCC3
59

Fill in growth for record CCC[S@@](=O)c1ccc2nc(NC(=O)OC)[nH]c2c1
98.9

Fill in growth for record c1ccc(-c2cn3ccnc3c(-c3ccc4c(c3)ncn4C3CCCCC3)n2)cc1
101
